Molecular target: GPR10 (Homo sapiens)
Construct: host or cells: CHO-K1
Sequence (P49683 whole entry): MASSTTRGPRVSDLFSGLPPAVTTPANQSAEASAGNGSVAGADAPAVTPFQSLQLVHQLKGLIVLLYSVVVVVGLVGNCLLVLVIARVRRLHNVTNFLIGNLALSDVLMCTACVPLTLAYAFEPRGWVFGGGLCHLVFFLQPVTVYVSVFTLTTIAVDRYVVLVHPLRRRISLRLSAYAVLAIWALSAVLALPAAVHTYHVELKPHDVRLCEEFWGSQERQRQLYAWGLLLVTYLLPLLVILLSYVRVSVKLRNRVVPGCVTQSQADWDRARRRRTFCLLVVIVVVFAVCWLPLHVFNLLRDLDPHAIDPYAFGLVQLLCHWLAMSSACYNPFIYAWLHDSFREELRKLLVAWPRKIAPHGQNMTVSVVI
Assay: Competitive binding, [^125I]-PrRP31, CHO-K1 cells expressing GPR10
No end group written: not given here.
measurement-type: Ki (nM)
The reply should contain only the number, in nM.

-- ask Need Ki of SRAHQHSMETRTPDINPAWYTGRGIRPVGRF-NH2 [PrRP31, prolactin-releasing peptide 31, reference compound] , thanks.
-- reply 4.58
